Source of measurements: ChEMBL document CHEMBL4033751

Please respond with reported viability at 20 µM for every item in the list.
Experiment: Cytotoxicity in mouse B16 cells assessed as cell viability at 20 uM by MTT assay
Assay type: cell-based
Conditions: read-out: Activity

Q) Tell me its viability at 20 µM given Cc1ccc(CNC(=O)/C=C/c2ccc(O)c(O)c2)cc1 as the entry.
A) 22 to 30%

Q) Tell me its viability at 20 µM given Cc1ccccc1CNC(=O)/C=C/c1ccc(O)c(O)c1 as the entry.
A) 33 to 49%

Q) Tell me its viability at 20 µM given Cc1cccc(CNC(=O)/C=C/c2ccc(O)c(O)c2)c1 as the entry.
A) 45%

---

Experiment: Cytotoxicity in mouse B16 cells assessed as cell viability at 10 uM by MTT assay
Format: cell-based
Conditions: read-out: Activity
Please respond with reported viability at 10 µM for every item in the list.

Q) Tell me its viability at 10 µM given O=C(/C=C/c1ccc(O)c(O)c1)NCc1ccc(C(F)(F)F)cc1 as the entry.
A) 39 to 48%

Q) Tell me its viability at 10 µM given O=C(/C=C/c1ccc(O)c(O)c1)NCc1ccccc1C(F)(F)F as the entry.
A) 33 to 49%

Q) Tell me its viability at 10 µM given O=C(/C=C/c1ccc(O)c(O)c1)NCc1ccc(Cl)cc1 as the entry.
A) 39 to 53%

Q) Tell me its viability at 10 µM given O=C(/C=C/c1ccc(O)c(O)c1)Nc1ccc(C(F)(F)F)cc1 as the entry.
A) 77 to 90%
